Give log10 of koff for every item shown.
target: T1, human transferrin receptor (BIAcore, construct not stated) (human, UniProt P02786 89-760); experiment: SPR, 25 C
T1 construct: also called huTfR
T1 sequence (P02786 89-760): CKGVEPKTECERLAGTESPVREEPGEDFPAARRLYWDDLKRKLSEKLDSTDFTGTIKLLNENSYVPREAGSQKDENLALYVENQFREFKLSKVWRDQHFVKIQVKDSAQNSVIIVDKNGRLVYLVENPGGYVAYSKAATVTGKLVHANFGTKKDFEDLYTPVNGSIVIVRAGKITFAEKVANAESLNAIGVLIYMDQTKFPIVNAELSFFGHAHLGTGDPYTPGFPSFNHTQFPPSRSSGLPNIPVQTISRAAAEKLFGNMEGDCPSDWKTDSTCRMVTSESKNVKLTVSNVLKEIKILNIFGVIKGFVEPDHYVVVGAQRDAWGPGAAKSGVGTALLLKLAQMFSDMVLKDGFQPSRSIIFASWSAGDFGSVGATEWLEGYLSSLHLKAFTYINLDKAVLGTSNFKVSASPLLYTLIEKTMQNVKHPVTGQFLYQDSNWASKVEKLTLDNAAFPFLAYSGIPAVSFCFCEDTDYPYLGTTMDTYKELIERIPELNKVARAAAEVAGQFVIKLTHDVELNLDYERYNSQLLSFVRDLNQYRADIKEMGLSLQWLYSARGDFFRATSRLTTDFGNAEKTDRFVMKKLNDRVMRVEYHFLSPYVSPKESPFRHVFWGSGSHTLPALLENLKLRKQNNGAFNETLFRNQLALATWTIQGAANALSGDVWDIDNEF
In plain terms, each number is the log10 of measured koff in s⁻¹.

Consider the following illustrative entries.
BINDER	QUANTITY_MEASURED	EXPERIMENTAL_VALUE
clone 299 VH 0 (rb) / VL 15 (antibody, V domains shown) VH: QSMEESGGRLVTPGTPLTLTCTVSGFSLSSYAMSWVRQAPGKGLEWIGYIWSGGSTDYASWAKGRFTISKTSTTVDLKITSPTTEDTATYFCARRYGTSYPDYGDANGFDPWGPGTLVTVSS VL: DIVMTQSPDSLAVSLGERATINCKSSQSISSYLIWYQQKPGQPPKLLIYRASTLASGVPDRFSGSGSGTDFTLTISSLQAEDVAVYYCQQAYSSSNVDNTFGGGTKVEIK	log10 of koff	-2.18
clone 299 VH 23-DANG / VL 0 (rb) (antibody, V domains shown) VH: QSMQESGPGLVKPSQTLSLTCTVSGFSLSSYAMSWIRQHPGKGLEWIGYIWSGGSTDYASWAKSRVTISKTSTTVSLKLSSVTAADTAVYYCARRYGTSYPDYGDANGFDPWGQGTLVTVSS VL: AYDMTQTPASVEVAVGGTVTIKCQASQSISSYLSWYQQKPGQRPKLLIYRASTLASGVSSRFKGSGSGTQFTLTISGVECADAATYYCQQCYSSSNVDNTFGGGTEVVVK	log10 of koff	-3.47
clone 299 VH 12 / VL 0 (rb) (antibody, V domains shown) VH: QVQLQESGPGLVKPSETLSLTCTVSGFSLSSYAMSWIRQPPGKGLEWIGYIWSGGSTDYNPSLKSRVTISVDTSKNQFSLKLSSVTAADTAVYYCARRYGTSYPDYGDANGFDPWGQGTLVTVSS VL: AYDMTQTPASVEVAVGGTVTIKCQASQSISSYLSWYQQKPGQRPKLLIYRASTLASGVSSRFKGSGSGTQFTLTISGVECADAATYYCQQCYSSSNVDNTFGGGTEVVVK	log10 of koff	-3.04

For each of the binders below, state log10 of koff.
1. clone 299 VH 11 / VL 9-NYA (antibody, V domains shown) VH: QQLLESGGGLVQPGGSLRLSCAASGFSLSSYAMSWVRQAPGKGLEWVGYIWSGGSTDYADSVKGRFTISRDNSKNTLYLQMNSLRAEDTAVYYCARRYGTSYPDYGDANGFDPWGQGTLVTVSS VL: AIQLTQSPSSLSASVGDRVTITCRASQSISSYLAWYQQKPGKAPKLLIYRASTLASGVPSRFSGSGSGTDFTLTISSLQPEDFATYYCQQNYASSNVDNTFGGGTKVEIK
2. clone 299 VH 20 / VL 9-NYA (antibody, V domains shown) VH: QSMQESGPGLVKPSQTLSLTCTVSGFSLSSYAMSWIRQHPGKGLEWIGYIWSGGSTDYAPSLKSRVTISVDTSKNQVSLKLSSVTAADTAVYYCARRYGTSYPDYGDANGFDPWGQGTLVTVSS VL: AIQLTQSPSSLSASVGDRVTITCRASQSISSYLAWYQQKPGKAPKLLIYRASTLASGVPSRFSGSGSGTDFTLTISSLQPEDFATYYCQQNYASSNVDNTFGGGTKVEIK
3. clone 299 VH 0 (rb) / VL 6 (antibody, V domains shown) VH: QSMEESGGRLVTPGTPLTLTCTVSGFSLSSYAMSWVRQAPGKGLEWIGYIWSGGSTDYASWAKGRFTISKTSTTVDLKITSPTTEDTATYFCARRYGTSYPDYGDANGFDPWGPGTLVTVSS VL: AIQLTQSPSSLSASVGDRVTITCRASQSISSYLSWYQQKPGKAPKLLIYRASTLASGVPSRFSGSGSGTDFTLTISSLQPEDFATYYCQQSYSSSNVDNTFGGGTKVEIK
4. clone 299 VH 22 / VL 9-NYA (antibody, V domains shown) VH: QSMQESGPGLVKPSQTLSLTCTVSGFSLSSYAMSWVRQHPGKGLEWIGYIWSGGSTDYASWAKSRVTISVDTSKNQVSLKLSSVTAADTAVYYCARRYGTSYPDYGDANGFDPWGQGTLVTVSS VL: AIQLTQSPSSLSASVGDRVTITCRASQSISSYLAWYQQKPGKAPKLLIYRASTLASGVPSRFSGSGSGTDFTLTISSLQPEDFATYYCQQNYASSNVDNTFGGGTKVEIK
5. clone 299 VH 9 / VL 9-NYA (antibody, V domains shown) VH: QQLLESGGGLVQPGGSLRLSCAASGFTFSSYAMSWVRQAPGKGLEWVGYIWSGGSTDYADSVKGRFTISRDNSKNTLYLQMNSLRAEDTAVYYCAKRYGTSYPDYGDANGFDPWGQGTLVTVSS VL: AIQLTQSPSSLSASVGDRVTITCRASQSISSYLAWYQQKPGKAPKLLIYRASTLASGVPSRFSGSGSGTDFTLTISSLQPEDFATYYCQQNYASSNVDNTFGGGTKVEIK
6. clone 299 VH 5 / VL 0 (rb) (antibody, V domains shown) VH: QSMEETGGGLIQPGGSLRLSCAASGFSLSSYAMSWVRQAPGKGLEWVGYIWSGGSTDYADSVKGRFTISRDNSKNTLYLQMNSLRAEDTAVYYCARRYGTSYPDYGDANGFDPWGPGTLVTVSS VL: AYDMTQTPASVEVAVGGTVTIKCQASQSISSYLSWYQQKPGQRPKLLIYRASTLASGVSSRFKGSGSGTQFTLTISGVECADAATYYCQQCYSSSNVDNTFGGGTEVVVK
7. clone 299 VH 1 / VL 0 (rb) (antibody, V domains shown) VH: VQLVETGGGLIQPGGSLRLSCAASGFSLSSYAMSWVRQAPGKGLEWVGYIWSGGSTDYADSVKGRFTISRDNSKNTLYLQMNSLRAEDTAVYYCARRYGTSYPDYGDANGFDPWGQGTLVTVSS VL: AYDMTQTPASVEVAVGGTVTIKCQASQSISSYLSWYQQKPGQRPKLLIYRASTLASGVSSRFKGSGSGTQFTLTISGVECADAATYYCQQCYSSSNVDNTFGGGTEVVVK

1. -2.62
2. -2.72
3. -2.72
4. -2.90
5. -2.60
6. -3.11
7. -3.04
